assay: activity coefficient (dimensionless); of the first substance listed, at infinite dilution; xn = mol fraction of the nth substance listed; conditions: 313 K; 87.4 kPa; Liquid; Chromatography; x1 = 0
Category scheme (activity coefficient): lower level = under 0.4, middle level = from 0.4 up to 1, upper level = 1 and over

Class label required: CC#N [acetonitrile] + O=S(=O)([N-]S(=O)(=O)C(F)(F)F)C(F)(F)F.O=S(=O)([N-]S(=O)(=O)C(F)(F)F)C(F)(F)F.c1ccc2cc(C[N+]3(CCCCCCCCC[N+]4(Cc5ccc6ccccc6c5)CCCC4)CCCC3)ccc2c1
lower level

Would you kindly repeat that for CCCCCCCC [octane] + O=S(=O)([N-]S(=O)(=O)C(F)(F)F)C(F)(F)F.O=S(=O)([N-]S(=O)(=O)C(F)(F)F)C(F)(F)F.c1ccc2cc(C[N+]3(CCCCCCCCC[N+]4(Cc5ccc6ccccc6c5)CCCC4)CCCC3)ccc2c1 ?
upper level

Now this one: CCCCCC [hexane] + O=S(=O)([N-]S(=O)(=O)C(F)(F)F)C(F)(F)F.O=S(=O)([N-]S(=O)(=O)C(F)(F)F)C(F)(F)F.c1ccc2cc(C[N+]3(CCCCCCCCC[N+]4(Cc5ccc6ccccc6c5)CCCC4)CCCC3)ccc2c1
upper level

For CCCC(C)=O [pentan-2-one] + O=S(=O)([N-]S(=O)(=O)C(F)(F)F)C(F)(F)F.O=S(=O)([N-]S(=O)(=O)C(F)(F)F)C(F)(F)F.c1ccc2cc(C[N+]3(CCCCCCCCC[N+]4(Cc5ccc6ccccc6c5)CCCC4)CCCC3)ccc2c1 then?
middle level

Now give it for c1ccncc1 [pyridine] + O=S(=O)([N-]S(=O)(=O)C(F)(F)F)C(F)(F)F.O=S(=O)([N-]S(=O)(=O)C(F)(F)F)C(F)(F)F.c1ccc2cc(C[N+]3(CCCCCCCCC[N+]4(Cc5ccc6ccccc6c5)CCCC4)CCCC3)ccc2c1 too.
lower level

Also need CC(=O)O [acetic acid] + O=S(=O)([N-]S(=O)(=O)C(F)(F)F)C(F)(F)F.O=S(=O)([N-]S(=O)(=O)C(F)(F)F)C(F)(F)F.c1ccc2cc(C[N+]3(CCCCCCCCC[N+]4(Cc5ccc6ccccc6c5)CCCC4)CCCC3)ccc2c1 , thanks.
middle level

Input Cc1ccc(C)cc1 [1,4-dimethylbenzene] + O=S(=O)([N-]S(=O)(=O)C(F)(F)F)C(F)(F)F.O=S(=O)([N-]S(=O)(=O)C(F)(F)F)C(F)(F)F.c1ccc2cc(C[N+]3(CCCCCCCCC[N+]4(Cc5ccc6ccccc6c5)CCCC4)CCCC3)ccc2c1
middle level

Again, but for O=C1CCCC1 [cyclopentanone] + O=S(=O)([N-]S(=O)(=O)C(F)(F)F)C(F)(F)F.O=S(=O)([N-]S(=O)(=O)C(F)(F)F)C(F)(F)F.c1ccc2cc(C[N+]3(CCCCCCCCC[N+]4(Cc5ccc6ccccc6c5)CCCC4)CCCC3)ccc2c1
lower level

Same question, C1CCCCC1 [cyclohexane] + O=S(=O)([N-]S(=O)(=O)C(F)(F)F)C(F)(F)F.O=S(=O)([N-]S(=O)(=O)C(F)(F)F)C(F)(F)F.c1ccc2cc(C[N+]3(CCCCCCCCC[N+]4(Cc5ccc6ccccc6c5)CCCC4)CCCC3)ccc2c1 this time
upper level

Now the same for CC(C)O [propan-2-ol] + O=S(=O)([N-]S(=O)(=O)C(F)(F)F)C(F)(F)F.O=S(=O)([N-]S(=O)(=O)C(F)(F)F)C(F)(F)F.c1ccc2cc(C[N+]3(CCCCCCCCC[N+]4(Cc5ccc6ccccc6c5)CCCC4)CCCC3)ccc2c1
upper level
